Where do the numbers come from? From patent US5786447A.

Hi there, I'd appreciate the recorded Ke in the MVD assay, antagonist potency against DPDPE for every entry that follows.
# target_under_test: δ opioid receptors (Mus musculus, UniProt P32300)
# Construct: Bioassays Using Isolated Organ Preparations; from tissue; host or cells: isolated mouse vas deferens
# Sequence (P32300 whole entry): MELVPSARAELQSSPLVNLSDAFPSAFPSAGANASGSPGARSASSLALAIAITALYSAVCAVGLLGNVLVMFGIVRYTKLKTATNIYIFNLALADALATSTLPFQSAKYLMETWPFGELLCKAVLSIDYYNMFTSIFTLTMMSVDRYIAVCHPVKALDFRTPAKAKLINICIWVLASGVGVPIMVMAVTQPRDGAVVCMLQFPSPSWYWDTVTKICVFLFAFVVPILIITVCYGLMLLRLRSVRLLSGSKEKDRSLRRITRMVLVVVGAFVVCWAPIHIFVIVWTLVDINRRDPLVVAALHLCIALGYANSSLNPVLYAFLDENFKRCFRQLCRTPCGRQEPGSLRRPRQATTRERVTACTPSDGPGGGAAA
# experimental_details: MVD assay: inhibition of electrically evoked contractions of the mouse vas deferens (δ antagonist Ke)
# Format: cell-based
# experimental_context: δ agonist DPDPE, means of 3-8 determinations ± SEM
Positions of bridges follow the written chain, without caps; N, C: chain ends. Non-standard residues stand in square brackets, D forms with d. Residues, ends and D or L forms follow the SMILES beside them. 2Nal = N[C@@H](Cc1ccc2ccccc2c1)C(=O)O; Dmt = Cc1cc(O)cc(C)c1C[C@H](N)C(=O)O; dOrn = NCCC[C@@H](N)C(=O)O
Number only, no unit.

Form field - read-out: Ke in the MVD assay, antagonist potency against DPDPE; system: δ opioid receptors (Mus musculus, UniProt P32300); submitted item: N[C@@H](Cc1ccc(O)cc1)C(=O)N[C@@H]1CCCNC(=O)CNC(=O)[C@H]2CCCN2C(=O)[C@H](Cc2ccc3ccccc3c2)NC1=O [H-Tyr-c[-D-Orn-2-Nal-D-Pro-Gly-], reference compound] (HELM PEPTIDE1{Y.[O=C([C@@H](CCCN[*:3])N[*:1])[*:2]].[O=C([C@H](Cc1ccc2ccccc2c1)N[*:1])[*:2]].[dP].G}$PEPTIDE1,PEPTIDE1,2:R3-5:R2$$$V2.0)
233

Check CN[C@@H](Cc1ccc(O)cc1)C(=O)N[C@@H]1CCCNC(=O)CNC(=O)[C@H]2CCCN2C(=O)[C@H](Cc2ccc3ccccc3c2)NC1=O [Example 1, Tyr(NMe)-c[-D-Orn-2-Nal-D-Pro-Gly-]] (HELM PEPTIDE1{[meY].[O=C([C@@H](CCCN[*:3])N[*:1])[*:2]].[O=C([C@H](Cc1ccc2ccccc2c1)N[*:1])[*:2]].[dP].G}$PEPTIDE1,PEPTIDE1,2:R3-5:R2$$$V2.0) too.
45.9

Check Cc1cc(O)cc(C)c1C[C@H](N)C(=O)N[C@@H]1CCCNC(=O)[C@@H](C)NC(=O)[C@H]2CCCN2C(=O)[C@H](Cc2ccc3ccccc3c2)NC1=O [Example 10, H-Dmt-c[-D-Orn-2-Nal-D-Pro-D-Ala-]] (H-[Dmt][dOrn][2Nal][dP][dA]; lactam 2-C) too.
0.577
